Data origin: patent US20260209323A1

Recorded measurements of pKd, one per entry
- measurement-target: T1, human gasdermin D (GSDMD), full length (human, UniProt P57764 1-484, chemically biotinylated (sites not given) in the SPR experiments)
- T1 construct: Used in SPR (biotinylated), nanoDSF and the liposome assay; the same entry is used for endogenous GSDMD of THP-1 cells; also called wild type, human GSDMD; GSDMD 1-484
- T1 sequence: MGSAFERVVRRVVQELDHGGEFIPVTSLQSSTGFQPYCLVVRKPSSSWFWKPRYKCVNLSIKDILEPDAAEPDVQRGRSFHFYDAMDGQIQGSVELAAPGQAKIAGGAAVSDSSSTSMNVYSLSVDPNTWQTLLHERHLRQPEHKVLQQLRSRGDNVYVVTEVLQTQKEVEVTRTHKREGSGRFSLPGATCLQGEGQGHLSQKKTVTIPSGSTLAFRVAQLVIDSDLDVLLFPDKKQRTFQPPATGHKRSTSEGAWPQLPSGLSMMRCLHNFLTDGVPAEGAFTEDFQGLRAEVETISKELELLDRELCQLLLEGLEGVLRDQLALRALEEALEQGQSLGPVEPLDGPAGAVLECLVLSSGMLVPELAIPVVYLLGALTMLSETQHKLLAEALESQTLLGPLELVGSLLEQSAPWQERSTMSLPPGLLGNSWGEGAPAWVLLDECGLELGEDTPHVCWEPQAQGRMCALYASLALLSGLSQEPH
- assay-info: SPR (Biacore 8K), biotinylated GSDMD immobilized, nanobody as analyte, multi-cycle kinetics, 1:1 model
Would you please state pKd, meaning minus log10 of the concentration in mol/L, as a bare number?

{"columns": ["binder", "pKd"],
 "data": [
  ["VHHGSDMD-5 (VHH, Alpaca single-domain antibody; also called VHH AK-G04; VHH-5; not shown: C-terminal HA-His tag (recombinant protein: SPR, nanoDSF, liposome assay, ELISA) or HA tag (LUMIER)) VHH: QVQLVETGGGLVQPGGSLRLSCAASGFVFSINPMNWYRQAPGKERELVAYISMRGSTTNYADSVKGRFIISRDNAKNTLYLQMNSLKPEDTAVYYCNAPSRSVWGQGTQVTVSS", 8.38],
  ["VHHGSDMD-3 (VHH, Alpaca single-domain antibody; One entry is used for all tag variants; also called VHH AK-H12; VHH-3; not shown: C-terminal tag that differs by assay: LPETG-His (recombinant protein: SPR, nanoDSF, liposome assay), HA-His6 (ELISA), HA) VHH: QVQLVETGGGLVQPGGSLRLSCAASGFTLDIYNMGWFRQAPGKEREGVSCISSRYGTSTYYADSVKGRFTISRDNAKNTVYLQMNNLKPEDTAVYYCATVSWRFTTNQDVCLTPSVSGYWGQGTQVTVSS", 8.66],
  ["VHHGSDMD-2 (VHH, Alpaca single-domain antibody; The crystal model holds VHH-2 residues 1-118; One entry is used for all tag variants; also called VHH AK-C03; VHH-2; not shown: C-terminal tag that differs by assay: LPETG-His (recombinant protein: SPR, nanoDSF, liposome assay, crystal), HA-His6 (E)) VHH: QVQLVESGGGLVQPGGSLRLSCVDSRSWINVYGANWYRQAPGKERELVAALTSGGTTNYADSVKGRFTISRDNAKNTVYLQMRDLKPEDTAVYYCNLERYTGSSVYPWGQGTQVTVSS", 8.08]
]}

Incoming: Given VHHGSDMD-1 (VHH, Alpaca single-domain antibody; One entry is used for all tag variants; also called VHH AK-A04; VHH-1; not shown: C-terminal tag that differs by assay: LPETG-His (recombinant protein: SPR, nanoDSF, liposome assay), HA-His6 (ELISA), HA) VHH: QVQLVESGGALVQPGGSLRLSCSASGFTFSKYLMSWYRQAPGKERELVATITTAGGNTNYADSVKGRFTISRDNAKNTVYLQMNSLKPEDTAVYYCKASGGTIRTVNETYWGQGTQVTVSS , respond with its pKd.
Outgoing: 9.26
